meta.source: patent US6426413B1

- ASSAYED SYSTEM: Flice Caspase-8 (Homo sapiens)
- Sequence (Q14790 217-374 limits assumed): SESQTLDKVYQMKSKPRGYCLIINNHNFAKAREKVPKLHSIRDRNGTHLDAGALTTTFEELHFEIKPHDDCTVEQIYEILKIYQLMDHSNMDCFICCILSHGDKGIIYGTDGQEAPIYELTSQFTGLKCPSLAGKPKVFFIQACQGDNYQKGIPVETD
- Sequence (Q14790 385-479 limits assumed): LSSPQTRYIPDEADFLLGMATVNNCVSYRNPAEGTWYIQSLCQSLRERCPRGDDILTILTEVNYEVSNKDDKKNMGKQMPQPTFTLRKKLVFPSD

- COMPOUND: "CCCN1C(=O)CC[C@H](NC(=O)c2cc(Cl)c(O)c(Cl)c2)C(=O)N1CC(=O)N[C@H](C=O)CC(=O)O [Compound 11c]"
  Ki / µM: 1.5

---

- Test system: Human Peripheral Blood Mononuclear Cells (PBMC)
- EXPERIMENT: PBMC cell assay: IL-1β assay with LPS-stimulated human PBMC
- Type: cell-based
- CONDITIONS USED: mature IL-1β in supernatant, LPS 5 ng/ml, 16-18 hr
pIC50: −log10 of the molar value.
Here, each record is paired with measured pIC50 data.

- COMPOUND: "CCCN1C(=O)CC[C@H](NC(=O)c2cc(Cl)c(O)c(Cl)c2)C(=O)N1CC(=O)N[C@H](C=O)CC(=O)O [Compound 11c]"
  ASSAYED SYSTEM: "Human Peripheral Blood Mononuclear Cells (PBMC)"
  pIC50: 6.38
- COMPOUND: "CS(=O)(=O)N1CCC[C@H](NC(=O)c2cc(Cl)c(O)c(Cl)c2)C(=O)N1CC(=O)N[C@H](C=O)CC(=O)O"
  ASSAYED SYSTEM: "Human Peripheral Blood Mononuclear Cells (PBMC)"
  pIC50: 6.00
- COMPOUND: "O=C[C@H](CC(=O)O)NC(=O)CN1C(=O)[C@@H](NC(=O)c2nccc3ccccc23)CCC(=O)N1Cc1ccccc1 [Compound 11a]"
  ASSAYED SYSTEM: "Human Peripheral Blood Mononuclear Cells (PBMC)"
  pIC50: 5.85
- COMPOUND: "CC(C(=O)N[C@H](C=O)CC(=O)O)N1C(=O)[C@@H](NC(=O)c2cc(Cl)c(O)c(Cl)c2)CCC(=O)N1C (mixture of isomers)"
  ASSAYED SYSTEM: "Human Peripheral Blood Mononuclear Cells (PBMC)"
  pIC50: 6.27
- COMPOUND: "CCCN1C(=O)CC[C@H](NC(=O)c2nccc3ccccc23)C(=O)N1CC(=O)N[C@H](C=O)CC(=O)O [Compound 11b]"
  ASSAYED SYSTEM: "Human Peripheral Blood Mononuclear Cells (PBMC)"
  pIC50: 5.82
